Listed compounds paired with reported log10(GI50)
system: MCF-7 cells; assay: Cell growth inhibition bioassay (sulforhodamine B); assay type: cell-based, human; details: Homo sapiens, MCF7; 48 h, SRB; read-out: GI50 in indicated cell line: MCF-7
Base-10 log of GI50, unit µg/mL.

- compound: "Clc1ccccc1/C=N\\Nc1ncnc2sc3c(c12)CCCC3 [II-29]"
  log10(GI50): 0.88
- compound: "COc1ccc(/C=N\\Nc2ncnc3sc4c(c23)CCCC4)c(OC)c1 [II-13]"
  log10(GI50): 0.89
- compound: "Brc1ccc(/C=N\\Nc2ncnc3sc4c(c23)CCCC4)cc1 [II-30]"
  log10(GI50): 0.36
- compound: "FC(F)(F)c1ccc(/C=N\\Nc2ncnc3sc4c(c23)CCCC4)cc1 [II-24]"
  log10(GI50): 0.30
- compound: "Fc1ccccc1/C=N\\Nc1ncnc2sc3c(c12)CCCC3 [II-27]"
  log10(GI50): 1.39
- compound: "C(=N/Nc1ncnc2sc3c(c12)CCCC3)/c1ccc[nH]1 [II-19]"
  log10(GI50): -1.00
- compound: "C(=N/Nc1ncnc2sc3c(c12)CCCC3)/c1ccc2ccccc2c1 [II-03]"
  log10(GI50): 0.52
- compound: "C(=N/Nc1ncnc2sc3c(c12)CCCC3)/c1cccc2ccccc12 [II-02]"
  log10(GI50): 0.36

Given item COc1cc(/C=N\Nc2ncnc3sc4c(c23)CCCC4)cc(OC)c1OC [II-14] , the value recorded as its log10(GI50) is 0.62

Given item C(=N/Nc1ncnc2sc3c(c12)CCCC3)/c1ccc2c(c1)OCO2 [II-12] , the value recorded as its log10(GI50) is 1.62

Given item COc1ccc(/C=N\Nc2ncnc3sc4c(c23)CCCC4)cc1 [II-10] , the value recorded as its log10(GI50) is 0.62

###

system: MCF-7 cells; assay: Cell growth inhibition bioassay (sulforhodamine B); assay type: cell-based, human; details: Homo sapiens, MCF7; 48 h, SRB; read-out: GI50 in indicated cell line: MCF-7
measuredMetric: GI50 (µM)
# output: bare number, implied unit µM

Recorded GI50, per entry:
- compound: "C=CCOc1cc(OC)c(C(=O)/C=C/c2ccc(OC)cc2)c(OCC=C)c1"
  GI50 / µM: 19.5
- compound: "COc1ccc(/C=C/C(=O)c2c(O)cc(OC)cc2OC)cc1"
  GI50 / µM: 17.5
- compound: "C=CCOc1cc(OC)c(C(=O)/C=C/c2ccc3c(c2)OCO3)c(OCC=C)c1"
  GI50 / µM: 10.9
- compound: "COc1cc(O)c(C(=O)/C=C/c2ccc3c(c2)OCO3)c(OC)c1"
  GI50 / µM: 140
- compound: "COc1ccc(/C=C/C(=O)c2c(O)cc(O)cc2OC)cc1"
  GI50 / µM: 17.3

Now examine the next entry.
Given item O=c1[nH]cc(F)c(=O)[nH]1 [Compound 5FU, 5-Fluorouracil, reference compound] , the value recorded as its GI50 is 6.5

###

tested on: MCF-7 cells; experiment: Cell growth inhibition bioassay (sulforhodamine B); assay type: cell-based, human; conditions: Homo sapiens, MCF7; 48 h, SRB; read-out: GI50 in indicated cell line: MCF-7
Listed compounds paired with reported GI50

Recorded GI50, per entry:
- smilesRecord: "O=[N+]([O-])c1ccc(/C=N\\Nc2ncnc3sc4c(c23)CCCC4)cc1"
  targetOrTestSystem: "MCF-7 cells"
  measuredResult: "> 62.5 µg/mL"
- smilesRecord: "COc1cc(/C=N\\Nc2ncnc3sc4c(c23)CCCC4)cc(OC)c1O"
  targetOrTestSystem: "MCF-7 cells"
  measuredResult: "> 62.5 µg/mL"
- smilesRecord: "COc1ccc(CCC(=O)c2c(O)cc(O)cc2OC)cc1"
  targetOrTestSystem: "MCF-7 cells"
  measuredResult: "65.5 µM"
- smilesRecord: "COc1cc(O)c(C(=O)CCc2ccc3c(c2)OCO3)c(OC)c1"
  targetOrTestSystem: "MCF-7 cells"
  measuredResult: "42.4 µM"
- smilesRecord: "COc1ccc(CCC(=O)c2c(O)cc(OC)cc2OC)cc1"
  targetOrTestSystem: "MCF-7 cells"
  measuredResult: "> 197 µM"
- smilesRecord: "COc1cc(O)cc(O)c1C(=O)/C=C/c1ccc2c(c1)OCO2"
  targetOrTestSystem: "MCF-7 cells"
  measuredResult: "20.4 µM"

Now examine the next entry.
Given item c1ccc(C(=NNc2ncnc3sc4c(c23)CCCC4)c2ccccc2)cc1 , the value recorded as its GI50 is > 62.5 µg/mL
